test: AUC (0 to last) in C57 mouse at 10 mg/kg, po; format: ADME, organism-based; design: time 0 - last, dose 10 mg/kg, route oral; details: plasma
observable: log10(AUC(0-t)) (log10 of the value in ng·h/mL)
In plain terms, each number is the log10 of measured AUC(0-t) in ng·h/mL.

Prompt: Using the record for Cc1nc2c(C(F)(F)F)cccc2n1-c1cccc(Oc2cccc(S(=O)(=O)C(C)C)c2)c1 , state its measured log10(AUC(0-t)).
Completion: 3.11

Prompt: Please give the documented log10(AUC(0-t)) of CCS(=O)(=O)c1cccc(Oc2cccc(-n3c(C)nc4c(C(F)(F)F)cccc43)c2)c1
Completion: 3.47

Prompt: Please supply the value of reported log10(AUC(0-t)) for the item Cc1nc2c(Cl)cccc2n1-c1cccc(Oc2cccc(S(C)(=O)=O)c2)c1
Completion: 3.18

Prompt: Supply reported log10(AUC(0-t)) belonging to this compound: CS(=O)(=O)c1cccc(Oc2cccc(-n3c(C(F)(F)F)nc4c(C(F)(F)F)cccc43)c2)c1
Completion: 4.16

Prompt: Note down log10(AUC(0-t)) recorded for Cc1nc2c(C(F)(F)F)cccc2n1-c1cccc(Oc2cccc(S(C)(=O)=O)c2)c1
Completion: 4.11
